- Test system: DU-145
- TEST PROTOCOL: Cytotoxicity against human DU145 cells after 72 hrs by cell counting kit-8 analysis
- Format: functional, cell-based
- CONDITION SUMMARY: DU-145, 72 h
PARAMETER: IC50

See these solved cases before continuing.
COc1cc(OC)cc(-c2cc3cc(OC)c(OC)cc3c(-c3cccc(O)c3)n2)c1 = 8.12 µM
COc1ccc(-c2cc3ccccc3c(-c3cccc(O)c3)n2)cc1 = 5.36 µM
COc1ccc(-c2cc3ccccc3c(-c3cccc(OC)c3)n2)cc1 = > 50 µM

input: Indicate its recorded IC50; the compound in question is COc1ccc(-c2cc3ccccc3c(-c3ccc(O)cc3)n2)cc1
output: > 50 µM

input: Supply reported IC50 belonging to this compound: COc1ccc(-c2cc3cc(C)ccc3c(-c3ccc(O)cc3)n2)cc1OC
output: 5.98 µM

input: Look up and report measured IC50 for this entry: COc1ccc(-c2cc3cc(C)ccc3c(-c3cccc(O)c3)n2)cc1OC
output: 6.51 µM

input: Read the entry COc1cccc(-c2nc(-c3ccc(OC)c(OC)c3)cc3cc(C)ccc23)c1 and write its reported IC50.
output: > 50 µM

input: Please give measured IC50 of the following entry: COc1ccc(-c2nc(-c3ccc(OC)c(OC)c3)cc3cc(C)ccc23)cc1
output: > 50 µM

The origin of these recorded values is ChEMBL document CHEMBL4251575.
